These measurements were taken from the supplement of paper PMC12764529.

# Test: folding stability dG unfold (combined trypsin and chymotrypsin); higher = more stable
Each record here notes measured folding stability dG unfold.
Could you give me the number in kcal/mol? Just the number is fine.

Worked examples, 3 sequences total:
SAGMPEIVKVKVKIKVNIPVFDKNGKLIGLIPKEYEFEIEAPYEEIKNIIESLPENAEVVEILEIENESAGG [r19_114_TrMRF] ... 3.29
SAGGSAGGSAGMDIDILTETEVTRYPDGTVVTTTTTRDSSGEVLSTTTTTTTVTPATPAASAGGSAGGSAGG [r11_452_JUSTAS] ... 2.47
SAMELSPEERAELLIEAVRRKLEEARKKGIPNKKVKVTIVLSEEEREALAKRIEEELKEEGYEVEIVPESAG [r14_908_TrROS_Hall] ... 2.29

Value of measured folding stability dG unfold for the entry SAGGSAGGSAGSMTVTSKYTLPGSSDVPVEVEVYSEAPVAVLTKPGAKTVLPLEALKALLSAGGSAGGSAGG [r11_370_JUSTAS] : -0.0987

Lab book: folding stability dG unfold of SAGGMKITITLTVKNEELLEELKKLAEELGLKVKIEVKYDEETNELTVTVEIELPPPPEEPSEEELKSAGGS [r16_262_TrROS_Hall] noted as 3.24

# folding stability dG unfold (sequence: SAGGSAGGSEEILKALGVEPGDEVEIEMTPEELEELLALPGVEPVRVEERPDGRLRVRIRILPSAGGSAGGS [r12_750_TrROS_Hall] ) is 2.99

Value of measured folding stability dG unfold for the entry SAMTITVTAPPGYTLNVTVTLAGGVPLTRTFSPSQSIDITIPEGTPFSLTVTTTAPGGEVATSTLTVPLSAG [r14_568_JUSTAS] : 3.19

SAGGSAKVIAVPSLEEALKLAEEAAKEGKDIVVLFPDNRLLVVEVKPAPDDKPVLKLKVFEIPPELSAGGSA [r15_761_TrMRF] yielded folding stability dG unfold of 0.767

Notebook: SAGGSAGGGPPNAPLKIYTDDGSVNLLNLDGQPLLVTVHPDATAEITLPDGTKITVPIPPGANLSAGGSAGG [r6_105_TrMRF] , folding stability dG unfold read as 0.977

Query SAGGSMTVVTVEARPPDSSETTVTPLTETAPDGRPRAISLEEARARLAAEPDRPVTRVTVRPEAAASAGGSA [r2_192_JUSTAS] yields folding stability dG unfold of 0.0975

Noted for SAGGATFAPGQTITVTVTVTLADGSTVTVTATVRIEVRAAPAPPVTVTNADGSTRTFTSAEEARAAASAGGS [r16_580_TrROS_Hall] : its folding stability dG unfold reads 1.01

The sequence SAGGMEVKEISIPVPENLTPEQAVEKVKELFEKHPELEHVLVYFELPNGKPLVVEVDKNGKITKVEEKSAGG [r13_690_TrMRF] showed folding stability dG unfold equal to 1.88

Form field folding stability dG unfold, entry SAGGSAGGKVTVDPAKVKAILTLKDGSKLIVLEDGVLLYNPKTEKVTLVSLSDLKKLPEDAPVPSAGGSAGG [r6_889_TrMRF] : 1.74

* * *

folding stability dG unfold values by entry
# Test: folding stability dG unfold from trypsin proteolysis; higher = more stable
Output spec: scalar in kcal/mol, unitless text.

Below, 3 sequences whose answers are already recorded.
SAGGSAGGSAGGKPLYLRITVKNKDGSEREIVVPLDTTIDDILAALPPNVTEVKIEVFPVSAGGSAGGSAGG [r7_288_TrROS_Hall] ... 3.36
SAGSSVTAPFSLPSDLVVDSVTYDPDAKTVTVTVTDPRGGRKAVGTFPVWDPNGNPVLSTADSYTFDNPSAG [r5_434_TrMRF] ... -0.417
SFEIEILDVDPDGWIVITIRYPSPDGKPLTPEEMEEIAEEIALELFPQFPDFKVTIEHDPESGTITIVIRSA [r9_485_TrROS] ... 4.25

Kindly note the recorded folding stability dG unfold for SAGGSAGGSAGMKVKTDPSSGPTVNKAYLENGTLILTTVTYDPSNGTTSTTTTVVPLSLLSAGGSAGGSAGG [r17_287_JUSTAS] , which is 0.433

* * *

# Test: folding stability dG unfold from trypsin proteolysis; higher = more stable
Readout: folding stability dG unfold (kcal/mol)
// units = kcal/mol; emit number, no label

Recorded folding stability dG unfold, per entry:
SAGGSAVPTVRATFRYPDGLVAELEVPVLPDGTPRVVLRVGGVEREVSLEELARLPPEFELVSVDPSAGGSA [r2_431_TrMRF] ... 0.517
SAGGSAGGSTITITTVIEKDGELYVIEAKIEVTEVYYDKKTKKKVKVKVKIEIKIEKVPLEDLSAGGSAGGS [r12_809_TrROS_Hall] ... 2.96
SMFRPFPLPDGRPAYDFIIPGLELASSFFPETGRPVLVLRPGGRLGAAPLFAADLDVLFSRPPLVAVEPDSA [r9_205_TrMRF] ... 0.634
SAGKKVTILIVVPETEEEAKKLAEELAKELAEKTGLEKVEVKVVPKGMTLEQLKELAKENNVDLVILVSAGG [r19_89_TrROS_Hall] ... 3.24
SAGGSAMVSLEEAKEATLREVKAALGFSPDATPEELRARGVPVRVPITVRDEKGNVIAELELELPGSAGGSA [r15_391_JUSTAS] ... -0.118
SAGGSAGGSAGMWIDEDTIRRLAALLGYPGKVEVVRLEDGSLLVVVYGDTEPGVLLFPLDSAGGSAGGSAGG [r11_410_TrMRF] ... 3.02
SAGGSAGGSPPDFVIQPEVEHTRDPENGKHEATVKIEIMDGRPIEIPFKSPEDAEDAIKELINSAGGSAGGS [r12_389_TrROS] ... 1.14
SAGGKKKVTIEIRKNPEEPGKYIIRVKVDGKEIEIEVSEEDLEEILAALKKLLPPGAKIEKIEIRELPSAGG [r13_519_TrROS_Hall] ... 2.38

The recorded folding stability dG unfold for SAGGSNFKPLEAEIYRNPDGKDVVQIMITFPDPNGKPFTVNIWIYPDGKIKISVYYNGKKEEIEIPSAGGSA [r2_182_TrROS] is 1.95

Item: SAGGSAGGDNWYHITIFRMKIKEVEPRKDPDGEKEPQFNFKIKEVVTIPIPPNDPEKLKDALGASAGGSAGG [r6_738_TrROS] | folding stability dG unfold: 0.745

* * *

# Test: folding stability dG unfold (combined trypsin and chymotrypsin); higher = more stable
Readout: folding stability dG unfold (kcal/mol)
Your answer should be a plain number; it is taken to be in kcal/mol.

Below, each entry is followed by its recorded folding stability dG unfold result.
SAGGSWVIIIQITIRNPGEERKITIPMEEIQGMPLEQIADNLRKLPGIGDVTIEIQEFPPPKPNDPSAGGSA [r2_282_TrROS] ... 2.31
SAGGSAMLVVADDPEVVRELVEPLFPDGEPVLVVGATEEEAAKLVEELKKKGLPFKVVVVRRPDRPSAGGSA [r15_567_TrMRF] ... 0.657
SAGGSAGGSAMWVIRIWFPNGNKRTIPIPPNEKLTAEEILDEFRIPNGREMRILRVEIWPYSAGGSAGGSAG [r3_465_TrROS] ... 2.43
SAGGSAKRVAFIGGGPEIEKVIKEAEKNGFEAVPFDGTPDEFLDALKKNFPDVKQIVFPDGKVLDASAGGSA [r15_712_TrMRF] ... -0.134
SAGGSAGGSAGGEVPADAVIEERLEVTDVSTGEKRRFRRTVTVEVDPDGSLRVRTEVEEESAGGSAGGSAGG [r7_19_JUSTAS] ... -0.215
SAGGSAGGSAGGMLYVKVKTEDGEELVLEVEGMTEDEIREELAKAGFKIEEIEVYEVEPSAGGSAGGSAGGS [r10_572_TrROS_Hall] ... 2.71
SAGGMTITIPPSVPDADVERIVEEAEATFPQPVTLTRDPGRGRWTLTFDGPEDERREAIEALAARLASAGGS [r16_227_JUSTAS] ... 0.434
SAGGSAGGGPDPSLPPPEVIEVVLPPDTLFRPPGGGYLSPEEVVELAKELEEREGIKATVTIRPSAGGSAGG [r6_162_JUSTAS] ... 0.823

For reference, reported folding stability dG unfold for SAGGSAGGSAGGGATVTETRTEFVPPTGIVRVESVVTYPDGSTRRTSSVVVVERPGAQPSAGGSAGGSAGGS [r10_290_JUSTAS] stands at 0.386

folding stability dG unfold reported for this sequence SAGGSAGGSAEEEEMPVEELVRRKAREVEEAFPGLRGERRITVTVTLPEGETWTAELVLPLSAGGSAGGSAG [r3_64_TrMRF] : 0.507

Form field folding stability dG unfold, entry SAGEKKEKEKEKKKEEEEKKKKEEEKKKEEEKKKEKTLKLEFTLPDGSKIEIEMTVEELKKLGLSPEELSAG [r5_12_TrROS_Hall] : 1.03
